system: Mus musculus; test: Neurotoxicity in Mus musculus Kunming (mouse) at 100 mg/kg, ip measured after 30 min by rotarod test; type: toxicity, organism-based; set-up: dose 100 mg/kg, route intraperitoneal; details: in vivo, 0.5 h

{"MOLECULE": "CCCCCCCCCCCCCCCCCC(=O)NCCO [N-(2-HYDROXYETHYL)STEARAMIDE]", "TEST SYSTEM": "Mus musculus", "Activity": "Non-toxic"}
{"MOLECULE": "CCCCCCCCCCCCCCCC(=O)NCCCO [N-(3-HYDROXYPROPYL)PALMITAMIDE]", "TEST SYSTEM": "Mus musculus", "Activity": "Non-toxic"}
{"MOLECULE": "O=C(/C=C/c1ccccc1)NCCCO", "TEST SYSTEM": "Mus musculus", "Activity": "Non-toxic"}
{"MOLECULE": "CN(CCO)C(=O)/C=C/c1ccccc1", "TEST SYSTEM": "Mus musculus", "Activity": "Non-toxic"}
{"MOLECULE": "CCCCCCCCCCCCCCCC(=O)NCCO", "TEST SYSTEM": "Mus musculus", "Activity": "Non-toxic"}
{"MOLECULE": "O=C(/C=C/c1ccccc1)NCCO [IDROCILAMIDE]", "TEST SYSTEM": "Mus musculus", "Activity": "Non-toxic"}
{"MOLECULE": "CCCCCCCCCCCCCCCC(=O)N(CC)CC [HEXADECANOIC ACID DIETHYLAMIDE]", "TEST SYSTEM": "Mus musculus", "Activity": "Non-toxic"}
{"MOLECULE": "CCCCCCCCCCCCCCCCCC(=O)N(C)CCO", "TEST SYSTEM": "Mus musculus", "Activity": "Non-toxic"}
{"MOLECULE": "CCN(CC)C(=O)/C=C/c1ccccc1 [N,N-DIETHYLCINNAMAMIDE]", "TEST SYSTEM": "Mus musculus", "Activity": "Non-toxic"}
{"MOLECULE": "CCCCCCCCCCCCCCCCCC(=O)N(CC)CC [N,N-DIETHYLSTEARAMIDE]", "TEST SYSTEM": "Mus musculus", "Activity": "Non-toxic"}
{"MOLECULE": "CN(C)C(=O)/C=C/c1ccccc1 [N,N-DIMETHYLCINNAMAMIDE]", "TEST SYSTEM": "Mus musculus", "Activity": "Non-toxic"}
{"MOLECULE": "CCCCCCCCCCCCCCCCCC(=O)NCCCO", "TEST SYSTEM": "Mus musculus", "Activity": "Non-toxic"}
{"MOLECULE": "CCCCCCCCCCCCCCCC(=O)N(CCO)CCO", "TEST SYSTEM": "Mus musculus", "Activity": "Non-toxic"}
